# Experiment: Stability of the analytes in rat plasma (method validation)
# Format: in vitro ADME
# Setup conditions: rat plasma, room temperature 4 h, n = 3; low QC (P, C 60; E, EG 3; PG, CG 30 ng/mL)
Property: Short Term Stability, Accuracy (%)

• Cc1cc(O)c2c(c1)C(=O)c1cc(O)cc(O)c1C2=O [E, emodin] = 103.2
• Cc1cc(O)c2c(c1)C(=O)c1cc(O)cc(O[C@@H]3O[C@H](CO)[C@@H](O)[C@H](O)[C@H]3O)c1C2=O [EG, emodin-8-O-β-D-glucoside] = 99.8
• Cc1cc(O)c2c(c1)C(=O)c1cccc(O)c1C2=O [C, chrysophanol] = 103.5
• COc1cc(O)c2c(c1)C(=O)c1cc(C)cc(O)c1C2=O [P, physcion] = 104.9
• Cc1cc(O)c2c(c1)C(=O)c1cccc(O[C@@H]3O[C@H](CO)[C@@H](O)[C@H](O)[C@H]3O)c1C2=O [CG, chrysophanol-8-O-β-D-glucoside] = 97.6
• COc1cc(O[C@@H]2O[C@H](CO)[C@@H](O)[C@H](O)[C@H]2O)c2c(c1)C(=O)c1cc(C)cc(O)c1C2=O [PG, physcion-8-O-β-D-glucoside] = 98.9

====

# Experiment: Stability of the analytes in rat plasma (method validation)
# Type: in vitro ADME
# Setup conditions: rat plasma, three freeze-thaw cycles −80 °C to room temperature, n = 3; low QC (P, C 60; E, EG 3; PG, CG 30 ng/mL)
Property: Freeze and Thaw Stability, Accuracy (%)

- Cc1cc(O)c2c(c1)C(=O)c1cccc(O)c1C2=O [C, chrysophanol]: 89.7
- COc1cc(O[C@@H]2O[C@H](CO)[C@@H](O)[C@H](O)[C@H]2O)c2c(c1)C(=O)c1cc(C)cc(O)c1C2=O [PG, physcion-8-O-β-D-glucoside]: 101.5
- Cc1cc(O)c2c(c1)C(=O)c1cccc(O[C@@H]3O[C@H](CO)[C@@H](O)[C@H](O)[C@H]3O)c1C2=O [CG, chrysophanol-8-O-β-D-glucoside]: 98.3
- Cc1cc(O)c2c(c1)C(=O)c1cc(O)cc(O)c1C2=O [E, emodin]: 107.5
- COc1cc(O)c2c(c1)C(=O)c1cc(C)cc(O)c1C2=O [P, physcion]: 103.6
- Cc1cc(O)c2c(c1)C(=O)c1cc(O)cc(O[C@@H]3O[C@H](CO)[C@@H](O)[C@H](O)[C@H]3O)c1C2=O [EG, emodin-8-O-β-D-glucoside]: 100.4

====

# Experiment: Stability of the analytes in rat plasma (method validation)
# Format: in vitro ADME
# Setup conditions: rat plasma, −80 °C one month, n = 3; middle QC (P, E, C 150; PG, EG, CG 75 ng/mL)
Property: Long Term Stability, Accuracy (%)

- COc1cc(O[C@@H]2O[C@H](CO)[C@@H](O)[C@H](O)[C@H]2O)c2c(c1)C(=O)c1cc(C)cc(O)c1C2=O [PG, physcion-8-O-β-D-glucoside]: 98.5
- COc1cc(O)c2c(c1)C(=O)c1cc(C)cc(O)c1C2=O: 100.1
- Cc1cc(O)c2c(c1)C(=O)c1cc(O)cc(O[C@@H]3O[C@H](CO)[C@@H](O)[C@H](O)[C@H]3O)c1C2=O [EG, emodin-8-O-β-D-glucoside]: 107.9
- Cc1cc(O)c2c(c1)C(=O)c1cccc(O[C@@H]3O[C@H](CO)[C@@H](O)[C@H](O)[C@H]3O)c1C2=O [CG, chrysophanol-8-O-β-D-glucoside]: 100.6
- Cc1cc(O)c2c(c1)C(=O)c1cc(O)cc(O)c1C2=O: 107.8
- Cc1cc(O)c2c(c1)C(=O)c1cccc(O)c1C2=O: 97.9

====

# Experiment: Pharmacokinetic study after oral administration of R. acetosa extract to rats
# Type: in vivo, Sprague‒Dawley rats
# Setup conditions: male, Sprague-Dawley; rat plasma, oral R. acetosa extract 2 g/kg, n = 3, mean ± SD; last measured time points for C, E, CG, PG 6, 24, 8, 6 h
Property: AUC(0-t) (ng·h/mL)

For orientation, consider the following solved cases.
• COc1cc(O[C@@H]2O[C@H](CO)[C@@H](O)[C@H](O)[C@H]2O)c2c(c1)C(=O)c1cc(C)cc(O)c1C2=O [PG, physcion-8-O-β-D-glucoside] = 82.8
• Cc1cc(O)c2c(c1)C(=O)c1cc(O)cc(O)c1C2=O [E, emodin] = 1160

(a) Cc1cc(O)c2c(c1)C(=O)c1cccc(O)c1C2=O [C, chrysophanol]
(b) Cc1cc(O)c2c(c1)C(=O)c1cccc(O[C@@H]3O[C@H](CO)[C@@H](O)[C@H](O)[C@H]3O)c1C2=O [CG, chrysophanol-8-O-β-D-glucoside]
Would you kindly point out which of a and b has the smaller AUC(0-t) figure? Give the label of your selection.
b

====

# Experiment: Stability of the analytes in rat plasma (method validation)
# Type: in vitro ADME
# Setup conditions: rat plasma, room temperature 4 h, n = 3; middle QC (P, E, C 150; PG, EG, CG 75 ng/mL)
Property: Short Term Stability, Accuracy (%)

• Cc1cc(O)c2c(c1)C(=O)c1cc(O)cc(O)c1C2=O [E, emodin] = 100.7
• COc1cc(O)c2c(c1)C(=O)c1cc(C)cc(O)c1C2=O [P, physcion] = 98.9
• Cc1cc(O)c2c(c1)C(=O)c1cc(O)cc(O[C@@H]3O[C@H](CO)[C@@H](O)[C@H](O)[C@H]3O)c1C2=O [EG, emodin-8-O-β-D-glucoside] = 108.5
• Cc1cc(O)c2c(c1)C(=O)c1cccc(O[C@@H]3O[C@H](CO)[C@@H](O)[C@H](O)[C@H]3O)c1C2=O [CG, chrysophanol-8-O-β-D-glucoside] = 96.9
• Cc1cc(O)c2c(c1)C(=O)c1cccc(O)c1C2=O [C, chrysophanol] = 98.6
• COc1cc(O[C@@H]2O[C@H](CO)[C@@H](O)[C@H](O)[C@H]2O)c2c(c1)C(=O)c1cc(C)cc(O)c1C2=O [PG, physcion-8-O-β-D-glucoside] = 91.8

====

# Experiment: Stability of the analytes in rat plasma (method validation)
# Assay type: in vitro ADME
# Setup conditions: processed rat plasma sample, 4 °C 24 h, n = 3; low QC (P, C 60; E, EG 3; PG, CG 30 ng/mL)
Property: Processed Sample Stability, Accuracy (%)

• COc1cc(O[C@@H]2O[C@H](CO)[C@@H](O)[C@H](O)[C@H]2O)c2c(c1)C(=O)c1cc(C)cc(O)c1C2=O [PG, physcion-8-O-β-D-glucoside] = 98.8
• Cc1cc(O)c2c(c1)C(=O)c1cccc(O[C@@H]3O[C@H](CO)[C@@H](O)[C@H](O)[C@H]3O)c1C2=O [CG, chrysophanol-8-O-β-D-glucoside] = 91.1
• COc1cc(O)c2c(c1)C(=O)c1cc(C)cc(O)c1C2=O [P, physcion] = 102.2
• Cc1cc(O)c2c(c1)C(=O)c1cccc(O)c1C2=O [C, chrysophanol] = 101.5
• Cc1cc(O)c2c(c1)C(=O)c1cc(O)cc(O[C@@H]3O[C@H](CO)[C@@H](O)[C@H](O)[C@H]3O)c1C2=O [EG, emodin-8-O-β-D-glucoside] = 91.5
• Cc1cc(O)c2c(c1)C(=O)c1cc(O)cc(O)c1C2=O [E, emodin] = 108.2

====

# Experiment: Pharmacokinetic study after oral administration of R. acetosa extract to rats
# Format: in vivo, Sprague‒Dawley rats
# Setup conditions: male, Sprague-Dawley, plasma; rat, oral R. acetosa extract 2 g/kg, n = 3, mean ± SD
# Protocol: The analysis was performed on an Agilent 1260 series (Agilent Technologies, Waldbronn, Germany) HPLC system. […] Male Sprague‒Dawley rats (8-week-old, weighing 250 ± 10 g) were obtained from Koatech (Pyeongtaek, Korea). […] The calculated doses of compounds based on the contents in the extract were 18.8, 25.8, 13.6, 15.4, 3.4, and 8.2 mg/kg for E, EG, C, CG, P, and PG, respectively. […]
Property: MRT (h)

* Cc1cc(O)c2c(c1)C(=O)c1cccc(O[C@@H]3O[C@H](CO)[C@@H](O)[C@H](O)[C@H]3O)c1C2=O [CG, chrysophanol-8-O-β-D-glucoside] | 2.4
* Cc1cc(O)c2c(c1)C(=O)c1cc(O)cc(O)c1C2=O | 7.7
* Cc1cc(O)c2c(c1)C(=O)c1cccc(O)c1C2=O | 2.4
* COc1cc(O[C@@H]2O[C@H](CO)[C@@H](O)[C@H](O)[C@H]2O)c2c(c1)C(=O)c1cc(C)cc(O)c1C2=O [PG, physcion-8-O-β-D-glucoside] | 2.7

====

# Experiment: Stability of the analytes in rat plasma (method validation)
# Assay type: in vitro ADME
# Setup conditions: rat plasma, three freeze-thaw cycles −80 °C to room temperature, n = 3; high QC (P, E, C 300; PG, EG, CG 150 ng/mL)
Property: Freeze and Thaw Stability, Accuracy (%)

* Cc1cc(O)c2c(c1)C(=O)c1cccc(O[C@@H]3O[C@H](CO)[C@@H](O)[C@H](O)[C@H]3O)c1C2=O [CG, chrysophanol-8-O-β-D-glucoside] | 97.0
* COc1cc(O[C@@H]2O[C@H](CO)[C@@H](O)[C@H](O)[C@H]2O)c2c(c1)C(=O)c1cc(C)cc(O)c1C2=O [PG, physcion-8-O-β-D-glucoside] | 93.6
* Cc1cc(O)c2c(c1)C(=O)c1cccc(O)c1C2=O | 92.4

The reported measurements were obtained from paper PMC6161010.
